Assay: High humidity test (25° C., relative humidity 90% ± 5%), stability study
Assay type: physicochemical
Conditions: RH 90% ± 5%, Day 5, cell wraps, first line given
Measured parameter: Appearance Day 5

### Prompt Record request: Appearance Day 5 value, item Cc1cc(S(=O)(=O)Nc2cccc3ccccc23)c2c(C)ccc(C(C)C)cc1-2 [4d]
### Response purple

### Prompt Which measured Appearance Day 5 value corresponds to Cc1cc(S(=O)(=O)Nc2cccc(Br)c2)c2c(C)ccc(C(C)C)cc1-2 [4a] ?
### Response purple

### Prompt Record request: Appearance Day 5 value, item CCCNS(=O)(=O)c1cc(C)c2cc(C(C)C)ccc(C)c1-2 [4f]
### Response purple

### Prompt Need Appearance Day 5, item Cc1cc(S(=O)(=O)NC2CCCCC2)c2c(C)ccc(C(C)C)cc1-2 [4i]
### Response purple

### Prompt Given the molecule CCNS(=O)(=O)c1cc(C)c2cc(C(C)C)ccc(C)c1-2 [4h] , what is its reported Appearance Day 5?
### Response blue

---
### Prompt I would be grateful if you could share the reported Appearance Day 5 for Cc1cc(S(=O)(=O)[O-])c2c(C)ccc(C(C)C)cc1-2.[Na+] [Azulene sulfonate sodium, reference compound] .
### Response blue

### Prompt Recorded Appearance Day 5 for Cc1ccc(NS(=O)(=O)c2cc(C)c3cc(C(C)C)ccc(C)c2-3)cc1 [4g] , please?
### Response purple

### Prompt Field request: Appearance Day 5 | item: Cc1cc(S(=O)(=O)NC(C)C)c2c(C)ccc(C(C)C)cc1-2 [4c]
### Response purple

### Prompt Item under review: Cc1cc(S(=O)(=O)NCc2ccccc2)c2c(C)ccc(C(C)C)cc1-2 [4j] . Reported Appearance Day 5?
### Response dark

### Prompt Which measured Appearance Day 5 value corresponds to Cc1cc(S(=O)(=O)Nc2ccc(N)cc2)c2c(C)ccc(C(C)C)cc1-2 [4l] ?
### Response purple

### Prompt Look up Appearance Day 5 for this molecule: COc1ccc(NS(=O)(=O)c2cc(C)c3cc(C(C)C)ccc(C)c2-3)c(OC)c1 [4b]
### Response purple

### Prompt # input molecule: Cc1cc(S(=O)(=O)NCC(C)C)c2c(C)ccc(C(C)C)cc1-2 [4e] ; wanted: its Appearance Day 5
### Response purple

### Prompt Look at this molecule and give its reported Appearance Day 5. Cc1cc(S(=O)(=O)Nc2ccc(Cl)cc2)c2c(C)ccc(C(C)C)cc1-2 [4k]
### Response purple

---

Consider the following compounds and their measured Melting point Day 5 readings.
Assay: High-temperature test (60° C.), stability study
Type: physicochemical
Details: open-stored, Day 5

### Prompt Which value of Melting point Day 5 has been reported for CCCNS(=O)(=O)c1cc(C)c2cc(C(C)C)ccc(C)c1-2 in the records?
### Response 60.0-62.0 °C

### Prompt # lookup: Melting point Day 5 of Cc1ccc(NS(=O)(=O)c2cc(C)c3cc(C(C)C)ccc(C)c2-3)cc1
### Response 146.0-148.0 °C

### Prompt Given the compound Cc1cc(S(=O)(=O)[O-])c2c(C)ccc(C(C)C)cc1-2.[Na+] [Azulene sulfonate sodium, reference compound] , what is its reported Melting point Day 5?
### Response 102.5-104.0 °C

Further cases:
### Prompt I am curious: what Melting point Day 5 value has been reported for Cc1cc(S(=O)(=O)NC2CCCCC2)c2c(C)ccc(C(C)C)cc1-2 ?
### Response 107.0-108.5 °C

### Prompt Look up Melting point Day 5 for this compound: Cc1cc(S(=O)(=O)NCC(C)C)c2c(C)ccc(C(C)C)cc1-2
### Response 117.5-118.5 °C

### Prompt Give its Melting point Day 5 value. Item: Cc1cc(S(=O)(=O)Nc2ccc(Cl)cc2)c2c(C)ccc(C(C)C)cc1-2
### Response 134.0-135.5 °C

### Prompt // Melting point Day 5 lookup, key: CCNS(=O)(=O)c1cc(C)c2cc(C(C)C)ccc(C)c1-2
### Response 123.5-125.5 °C

### Prompt Which Melting point Day 5 is reported for this compound? Cc1cc(S(=O)(=O)Nc2cccc(Br)c2)c2c(C)ccc(C(C)C)cc1-2
### Response 172.0-173.5 °C

### Prompt Would you mind telling me what Melting point Day 5 value was observed for Cc1cc(S(=O)(=O)NCc2ccccc2)c2c(C)ccc(C(C)C)cc1-2 ?
### Response 124.0-125.5 °C

---

Assay: Intense light irradiation test (4500LX ± 500LX), stability study
Format: physicochemical
Conditions: Day 0
Measured parameter: Spot numbers on TLC Day 0

### Prompt What value of Spot numbers on TLC Day 0 has been reported for the following compound? CCCNS(=O)(=O)c1cc(C)c2cc(C(C)C)ccc(C)c1-2
### Response 1

More entries:
### Prompt # get_value(readout='Spot numbers on TLC Day 0', item= CCNS(=O)(=O)c1cc(C)c2cc(C(C)C)ccc(C)c1-2 )
### Response 1

### Prompt Query (compound): Cc1cc(S(=O)(=O)Nc2cccc(Br)c2)c2c(C)ccc(C(C)C)cc1-2 ; field requested: Spot numbers on TLC Day 0
### Response 1

---

Experiment: High-temperature test (60° C.), stability study
Type: physicochemical
Conditions: open-stored, Day 0
The entries below come with measured Melting point Day 0 values attached.

// known answers, use as guide
### Prompt Data request, read-out Melting point Day 0, for Cc1cc(S(=O)(=O)Nc2cccc3ccccc23)c2c(C)ccc(C(C)C)cc1-2
### Response 140.0-142.5 °C

### Prompt Given the entry Cc1cc(S(=O)(=O)NCC(C)C)c2c(C)ccc(C(C)C)cc1-2 , report its measured Melting point Day 0.
### Response 117.0-118.0 °C

### Prompt So what's the measured Melting point Day 0 for this one? Cc1cc(S(=O)(=O)Nc2ccc(Cl)cc2)c2c(C)ccc(C(C)C)cc1-2
### Response 134.5-135.0 °C

Lab note: next compound to report on.
### Prompt Consider the compound shown here: Cc1cc(S(=O)(=O)[O-])c2c(C)ccc(C(C)C)cc1-2.[Na+] [Azulene sulfonate sodium, reference compound] What is its recorded Melting point Day 0?
### Response 104.0-106.0 °C

---

// Spot numbers on TLC Day 10 lookup, one value per entry
Assay: Intense light irradiation test (4500LX ± 500LX), stability study
Type: physicochemical
Conditions: Day 10
Answer using only a numeral; do not append any unit.

### Prompt For the compound Cc1cc(S(=O)(=O)NCC(C)C)c2c(C)ccc(C(C)C)cc1-2 , what Spot numbers on TLC Day 10 is on record?
### Response 2

Then there is this compound:
### Prompt What Spot numbers on TLC Day 10 value was documented for this compound, Cc1cc(S(=O)(=O)Nc2cccc3ccccc23)c2c(C)ccc(C(C)C)cc1-2 ?
### Response 1

---

Experiment: High humidity test (25° C., relative humidity 90% ± 5%), stability study;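 also: samples kept uncovered in sealed humidity desiccators, appearance judged mainly by colour change, melting point on an automatic apparatus, TLC checked for extra spots versus start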
Assay type: physicochemical
Settings: RH 90% ± 5%, Day 5
Measured parameter: Melting point Day 5

// solved cases for Melting point Day 5 follow
### Prompt # lookup: Melting point Day 5 of COc1ccc(NS(=O)(=O)c2cc(C)c3cc(C(C)C)ccc(C)c2-3)c(OC)c1 [4b]
### Response 114.0-115.5 °C

### Prompt GET /values?readout=Melting point Day 5&item= Cc1cc(S(=O)(=O)NCc2ccccc2)c2c(C)ccc(C(C)C)cc1-2 [4j]
### Response 124.0-126.5 °C

### Prompt Given the entry Cc1cc(S(=O)(=O)Nc2ccc(Cl)cc2)c2c(C)ccc(C(C)C)cc1-2 [4k] , report its measured Melting point Day 5.
### Response 134.5-135.5 °C

### Prompt State the recorded Melting point Day 5 for this entry: CCCNS(=O)(=O)c1cc(C)c2cc(C(C)C)ccc(C)c1-2 [4f]
### Response 59.5-63.0 °C

### Prompt Recorded Melting point Day 5 of Cc1cc(S(=O)(=O)NCC(C)C)c2c(C)ccc(C(C)C)cc1-2 [4e] , please.
### Response 116.5-118.5 °C

---
### Prompt Please give the measured Melting point Day 5 for this compound: Cc1ccc(NS(=O)(=O)c2cc(C)c3cc(C(C)C)ccc(C)c2-3)cc1 [4g]
### Response 145.5-148.5 °C

### Prompt Which measured Melting point Day 5 value corresponds to Cc1cc(S(=O)(=O)[O-])c2c(C)ccc(C(C)C)cc1-2.[Na+] [Azulene sulfonate sodium, reference compound] ?
### Response 100.5-105.5 °C

---

Experiment: High-temperature test (60° C.), stability study;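 also: samples kept uncovered in dishes at 60 °C for up to 10 days and examined on Day 5 and Day 10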
Assay type: physicochemical
Details: open-stored, Day 10
Measured parameter: Spot numbers on TLC Day 10
Give the value as a plain number.

Use the examples below as a reference point.
### Prompt What value of measured Spot numbers on TLC Day 10 is listed for Cc1cc(S(=O)(=O)NC2CCCCC2)c2c(C)ccc(C(C)C)cc1-2 ?
### Response 1

### Prompt Query: Spot numbers on TLC Day 10; subject: Cc1cc(S(=O)(=O)[O-])c2c(C)ccc(C(C)C)cc1-2.[Na+] [Azulene sulfonate sodium, reference compound]
### Response 4

More entries:
### Prompt Recorded Spot numbers on TLC Day 10 of Cc1cc(S(=O)(=O)NCc2ccccc2)c2c(C)ccc(C(C)C)cc1-2 , please.
### Response 1
